// provenance: ChEMBL document CHEMBL3046965

system: Botrytis cinerea; experiment: Antifungal activity against Botryotinia fuckeliana UCA 992 assessed as inhibition of radial growth at 50 ug/mL after 6 days relative to control; assay type: functional; settings: UCA 992, 144 h
A collection of molecules and their measured inhibition at 50 µg/mL
Provide only the numeric value, understood in %.

>>> data_value("CC1(C)C[C@H](OCCSc2ccccc2)[C@]23CC[C@@H](O)[C@@](C)(CC[C@@H]12)C3")
6
>>> data_value("CO[C@H]1CC(C)(C)[C@@H]2CC[C@@]3(C)C[C@]12CCC3=O")
17
>>> data_value("CC1(C)C[C@H](OCCn2ccnc2)[C@]23CC[C@@H](O)[C@@](C)(CC[C@@H]12)C3")
67

API: the following record is the query input.
Check the records and state inhibition at 50 µg/mL for "CC1(C)C[C@H](OCCOc2ccc([N+](=O)[O-])cc2)[C@]23CC[C@@H](O)[C@@](C)(CC[C@@H]12)C3"
76
